experiment: Clinical study of the effect of ibuprofen on pharmacokinetics of Formula Ia; assay type: in vivo; conditions: human; plasma Formula Ia; single 400 mg dose PO fasted; alone or with ibuprofen 600 mg TID; read-out: Tmax (median)
observation.type: Tmax (h)
// return numeric value only (unit: h, not printed)

Recorded result, CC(C)(C)NC(=O)N[C@H](C(=O)N1C[C@H]2[C@@H]([C@H]1C(=O)NC(CC1CCC1)C(=O)C(N)=O)C2(C)C)C(C)(C)C (stereo partly shown) [Formula Ia] , Tmax: 1.75
